# Test system: DeltatarO mutant
# protocol_summary: S. aureus survival, RN4220 and DeltatarO strains – OD600, teichoic acid synthesis inhibitors, primary screen (AID 463173)
# condition_label: S. aureus RN4220 wild type/DeltatarO growth, OD600, 18 h, hits give low values, screened at 18.75 µg/mL (by protocol)
Out of some 52,000 compounds screened, about 4,300 (8.3%) were called active. This excerpt belongs to a sample that is enriched for actives.
We label by threshold. Values of survival strictly beneath 80% are met. Values of 80% and up are not met.

molecule	test_system	answer_label
CCc1cc(C(=O)OC)c(NC(=O)CC2SC(=NC)N(C)C2=O)s1 (stereo unspecified)	DeltatarO mutant	not met
CC1CCN(S(=O)(=O)c2ccc3c(ccc(=O)n3CC(=O)NCc3ccccc3)c2)CC1	DeltatarO mutant	met
CCCN(CCC)CCNC(=O)c1cc(-c2ccc(Br)s2)nc2ccccc12	DeltatarO mutant	met
COCCCNC(=O)c1cc(-c2cccnc2)nc2ccc(S(=O)(=O)N3CCC(C)CC3)cc12	DeltatarO mutant	not met
CCN(CC)CCNC(=O)c1cc(-c2ccc(Br)s2)nc2ccccc12	DeltatarO mutant	met
COc1ccc(N2CCN(C(=O)c3nn(-c4ccc(C)cc4)c(=O)n(C)c3=O)CC2)cc1	DeltatarO mutant	met
CC(=O)Nc1c(C(=O)Nc2cccc(C)c2)nnn1-c1ccc(C)cc1	DeltatarO mutant	met
COc1cccc(NC(=O)c2nn(-c3ccc(C)cc3)c(=O)n(C)c2=O)c1	DeltatarO mutant	not met
CC1CCN(S(=O)(=O)c2ccc3c(ccc(=O)n3CC(=O)Nc3ccc(C(C)C)cc3)c2)CC1	DeltatarO mutant	met
Cc1cccc(CN2C(=O)c3ccccc3S(=O)(=O)c3ccc(C(=O)OCC4CCCO4)cc32)c1 (stereo unspecified)	DeltatarO mutant	not met
COc1ccc(CNC(=O)c2cc(-c3ccc(Br)s3)nc3ccccc23)cc1	DeltatarO mutant	met
COc1ccc(C)cc1-n1nnc(C(=O)Nc2cccc(SC)c2)c1C	DeltatarO mutant	not met
Cc1ccc(C)c(-n2nnc(C(=O)Nc3ccc(Br)cc3)c2C)c1	DeltatarO mutant	met
CCCCOC(=O)Cc1c(C)[nH]c(=O)[nH]c1=O	DeltatarO mutant	not met
CC(=O)c1nnn(-c2ccc(C)cc2Cl)c1C	DeltatarO mutant	met
CCc1ccc(CNC(=O)c2cc(-c3ccc(Cl)s3)nc3ccccc23)cc1	DeltatarO mutant	not met
CC(C)Cc1nn2c(=O)cc(COC(=O)c3ccc4c(c3)OCO4)nc2s1	DeltatarO mutant	met
Cc1ccc(NC(=O)Cn2c(=O)ccc3cc(S(=O)(=O)N4CCC(C)CC4)ccc32)cc1Cl	DeltatarO mutant	met

====

# System: DeltatarO mutant
# protocol_summary: S. aureus survival, RN4220 and DeltatarO strains – OD600, teichoic acid synthesis inhibitors, primary screen (AID 463173)
# condition_label: S. aureus RN4220 wild type/DeltatarO growth, OD600, 18 h, hits give low values, screened at 18.75 µg/mL (by protocol)
About 4,300 (8.3%) of roughly 52,000 compounds were called active. Only a selection was taken, and actives are over-represented in it overall.
// values below are reported survival

structure_smiles_string	survival (%)
Cn1c(=O)c2cc(C(=O)N3CCN(c4ccc(Cl)cc4)CC3)sc2c2ccccc21	56
Cn1c(=O)c2cc(C(=O)N3CCN(c4cccc(C(F)(F)F)c4)CC3)sc2c2ccccc21	92
COc1cccc(N2CCN(C(=O)c3cc4c(=O)oc5ccc(C)cc5c4s3)CC2)c1	89
Cc1cccc(N2CCN(C(=O)c3cc4c(=O)n(C)c5ccccc5c4s3)CC2)c1C	47
Cc1ccc(Cl)cc1N1CCN(C(=O)c2cc3c(=O)n(C)c4ccccc4c3s2)CC1	56
